Record form. Attribute: abundance fitness. Fill in for each entry.
B1: Peroxisome proliferator-activated receptor delta, residues 71 to 145; numbered along this chain, Q03181 (parent)
chain: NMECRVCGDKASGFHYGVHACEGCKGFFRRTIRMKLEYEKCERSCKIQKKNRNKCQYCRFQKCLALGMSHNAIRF

- Variants of: B1
- measurement.notes: abundance fitness (aPCA) (normalised: wild type 0, dead -1); higher = more abundant; growth selection in yeast, the domain comes from the species named
- recorded.conditions: Homo sapiens
Just the number, please, no unit after it.

Request: Name the recorded abundance fitness for NMECRVCGDKASGFHYGVHACEGCKGFFRRTIRMKLEYEKCERSCKIQKKNRNKCQYCRFQKCLALGMSHNAKRF [I73K] .
Response: -0.05

Request: Name the recorded abundance fitness for NMECRVCGDKASGFHYGVHACEGCKGFFRRTIRMKLEYEKCERSCKIQKKNRNKCQYCRRQKCLALGMSHNAIRF [F60R] .
Response: -0.798

Request: Name the recorded abundance fitness for NMECRVCGDKASGFHYGVHACEGCKGFFRRTIRMKLEYEKCERSCKIQKKIRNKCQYCRFQKCLALGMSHNAIRF [N51I] .
Response: -0.016

Request: Name the recorded abundance fitness for NMECRVCGDKASGFHYGVHACEGCKGFFRRTIRMKLEYEKCYRSCKIQKKNRNKCQYCRFQKCLALGMSHNAIRF [E42Y] .
Response: -0.093

Request: Name the recorded abundance fitness for NMECRVCGDKASGFHYGVHACEGCKGDFRRTIRMKLEYEKCERSCKIQKKNRNKCQYCRFQKCLALGMSHNAIRF [F27D] .
Response: -0.41

Request: Name the recorded abundance fitness for NMECRVCGDKASGFHYGVHACEGCKGFFRRTIRMKLEYEKCERSCKIQKKNRNKCQYCRFQKCLALGCSHNAIRF [M68C] .
Response: -0.9

Request: Name the recorded abundance fitness for NMECRVCGDKASGFHYGVHACEGCKTFFRRTIRMKLEYEKCERSCKIQKKNRNKCQYCRFQKCLALGMSHNAIRF [G26T] .
Response: 0.039

Request: Name the recorded abundance fitness for NMECRVCGDKASGFHYGVHACEGCKGFFRRTIRMKLEYEKCTRSCKIQKKNRNKCQYCRFQKCLALGMSHNAIRF [E42T] .
Response: -0.117

Request: Name the recorded abundance fitness for NMECRVCGDKASGFHYGVHACEGCKGFFRRTIRMKLEYEKCERSCKIQKKNRAKCQYCRFQKCLALGMSHNAIRF [N53A] .
Response: -0.086

Request: Name the recorded abundance fitness for NMECRVCGDKASGFHYGVHACEGCKGFFRRTIRMKLEYEKCERSCKIQKKNRNKCQYMRFQKCLALGMSHNAIRF [C58M] .
Response: -0.63

Request: Name the recorded abundance fitness for NMECRVCGDKASGFHYGVHACEGCKGFFRRTIRMKLEYEKCERSCKIQKKNRNKCQYCRFQKCLAQGMSHNAIRF [L66Q] .
Response: 0.014

Request: Name the recorded abundance fitness for NMECRVCGDKASGFHYGVHACEGCKFFFRRTIRMKLEYEKCERSCKIQKKNRNKCQYCRFQKCLALGMSHNAIRF [G26F] .
Response: -0.125

Request: Name the recorded abundance fitness for NMECRVCGDKASGFHYGVHACEGCKGVFRRTIRMKLEYEKCERSCKIQKKNRNKCQYCRFQKCLALGMSHNAIRF [F27V] .
Response: -0.951

Request: Name the recorded abundance fitness for NMECRVCGDKASGFHYGVHACEGCKGFFRRTIRMKLDYEKCERSCKIQKKNRNKCQYCRFQKCLALGMSHNAIRF [E37D] .
Response: -0.034

Request: Name the recorded abundance fitness for NMECRVCGDKASGFHYGVHACEGCKGFFRRTIMMKLEYEKCERSCKIQKKNRNKCQYCRFQKCLALGMSHNAIRF [R33M] .
Response: 0.088

Request: Name the recorded abundance fitness for NMECRVCGDKASGFHYGVHACEGCKGFFRRTIRMKLEYEKCERSCKIQKKNRNKCQHCRFQKCLALGMSHNAIRF [Y57H] .
Response: -0.177

Request: Name the recorded abundance fitness for NMECRVCGDKASGFHYGVHACEGCKGFIRRTIRMKLEYEKCERSCKIQKKNRNKCQYCRFQKCLALGMSHNAIRF [F28I] .
Response: -1.23

Request: Name the recorded abundance fitness for NMECRVCGDKACGFHYGVHACEGCKGFFRRTIRMKLEYEKCERSCKIQKKNRNKCQYCRFQKCLALGMSHNAIRF [S12C] .
Response: -0.103

Request: Name the recorded abundance fitness for NMECRVCGDKASGFQYGVHACEGCKGFFRRTIRMKLEYEKCERSCKIQKKNRNKCQYCRFQKCLALGMSHNAIRF [H15Q] .
Response: -0.188

Request: Name the recorded abundance fitness for NMECRVCGDKASAFHYGVHACEGCKGFFRRTIRMKLEYEKCERSCKIQKKNRNKCQYCRFQKCLALGMSHNAIRF [G13A] .
Response: -0.239

Request: Name the recorded abundance fitness for NMECRVCGDKASGFHYGVHACEGCKGFFRRTIRMKLEYEKCERSCKIQFKNRNKCQYCRFQKCLALGMSHNAIRF [K49F] .
Response: -0.045

Request: Name the recorded abundance fitness for NMECRVCGDKASRFHYGVHACEGCKGFFRRTIRMKLEYEKCERSCKIQKKNRNKCQYCRFQKCLALGMSHNAIRF [G13R] .
Response: -0.427

Request: Name the recorded abundance fitness for NMECRVCGDKASGFHYGVHACEGCKGFFRRTIRMKLEYEKCERSCKIQKKNRNKCQYCRFQKCLALGMSHNAIYF [R74Y] .
Response: -0.081

Request: Name the recorded abundance fitness for NMECRVCGDKASGFHYGVHACEGAKGFFRRTIRMKLEYEKCERSCKIQKKNRNKCQYCRFQKCLALGMSHNAIRF [C24A] .
Response: -0.626

Request: Name the recorded abundance fitness for NMFCRVCGDKASGFHYGVHACEGCKGFFRRTIRMKLEYEKCERSCKIQKKNRNKCQYCRFQKCLALGMSHNAIRF [E3F] .
Response: -0.086

Request: Name the recorded abundance fitness for NMECRVCGDKASGFHYGVHACEGCKGFFRRTIRMKLEYEKCERSCKIQKKNRNKCQYCRFQKALALGMSHNAIRF [C63A] .
Response: -0.585

Request: Name the recorded abundance fitness for NMECRVCGDKAYGFHYGVHACEGCKGFFRRTIRMKLEYEKCERSCKIQKKNRNKCQYCRFQKCLALGMSHNAIRF [S12Y] .
Response: -0.138

Request: Name the recorded abundance fitness for NMECRVCGDKASGFHYGVHACEGCKGFFRRTIRMKLEYEKCERVCKIQKKNRNKCQYCRFQKCLALGMSHNAIRF [S44V] .
Response: -0.086

Request: Name the recorded abundance fitness for NMECRVCGDKASGFHYGVHACEGCKGFFRRTIRMKLEYEKCERSCKIQHKNRNKCQYCRFQKCLALGMSHNAIRF [K49H] .
Response: 0.602

Request: Name the recorded abundance fitness for NMECRVCGDKASGFHYGVHACEGCKGFFRRTIRMKLEYEKCERSCKIQKKNRNKCQYCRFQKCLTLGMSHNAIRF [A65T] .
Response: -0.073

Request: Name the recorded abundance fitness for NMECRVCGDKASGFHYGVHACEGCKGFFRRTIRMKLEYEKCERSCKIQKKNRNKCQYCRFQKCLALGMSHLAIRF [N71L] .
Response: -0.412

Request: Name the recorded abundance fitness for NMECRKCGDKASGFHYGVHACEGCKGFFRRTIRMKLEYEKCERSCKIQKKNRNKCQYCRFQKCLALGMSHNAIRF [V6K] .
Response: -0.745

Request: Name the recorded abundance fitness for NMECRVCGDKASGFHYGVHECEGCKGFFRRTIRMKLEYEKCERSCKIQKKNRNKCQYCRFQKCLALGMSHNAIRF [A20E] .
Response: -0.886

Request: Name the recorded abundance fitness for NMECRVCMDKASGFHYGVHACEGCKGFFRRTIRMKLEYEKCERSCKIQKKNRNKCQYCRFQKCLALGMSHNAIRF [G8M] .
Response: -0.782

Request: Name the recorded abundance fitness for NMECRVCGDKASGFHYGVHACEGCKGFFRRTIRMKLEYEKCERSCKIQKKNYNKCQYCRFQKCLALGMSHNAIRF [R52Y] .
Response: 0.012

Request: Name the recorded abundance fitness for NMECRVCGDKASGFHYGVHACEGCKGFFRRTIRMKLEYEKCERSCKIQKKNRNKCQYCRFQKKLALGMSHNAIRF [C63K] .
Response: -0.791

Request: Name the recorded abundance fitness for NMECRVCGDKASGFHYGVHACEGCKGFFRRTIQMKLEYEKCERSCKIQKKNRNKCQYCRFQKCLALGMSHNAIRF [R33Q] .
Response: 0.058

Request: Name the recorded abundance fitness for NMECRVCGDKASGFHYGVHACEGCKGFFRRTIRMKLEYEKCERSCKIQKKMRNKCQYCRFQKCLALGMSHNAIRF [N51M] .
Response: -0.026

Request: Name the recorded abundance fitness for NMECRVCGDKASGFHYGVHACEGCKGFFRRTIRMKLEYEKCERSCKIQKKNRNKCQYCRFQKCLALGMSHNAIRY [F75Y] .
Response: 0.026

Request: Name the recorded abundance fitness for NMECRVCGDKASGFHYGVHACSGCKGFFRRTIRMKLEYEKCERSCKIQKKNRNKCQYCRFQKCLALGMSHNAIRF [E22S] .
Response: -0.405

Request: Name the recorded abundance fitness for NMECRVCGDKASGFHYGVHACEGCKGFFRRTIRMKLEYEKCERSCKIQKKNRKKCQYCRFQKCLALGMSHNAIRF [N53K] .
Response: -0.104

Request: Name the recorded abundance fitness for NMECRVCGDKASGFHYGVHACEGCKGFFRRTIRMKLEYEKCERSCKIQKKNRNKCQYCRFQKCLALGMMHNAIRF [S69M] .
Response: 0.029

Request: Name the recorded abundance fitness for NMECRVCGDKASGFHYGVHACEGCKGFFRRTIRMKLEYEKCERSCKIQKKNRNKCQYCRFQVCLALGMSHNAIRF [K62V] .
Response: -0.569

Request: Name the recorded abundance fitness for NMECRVCGDKASGFHYGVHACEGCKGFFRRTIRMKLEYEKCERSCKIQKKNRNACQYCRFQKCLALGMSHNAIRF [K54A] .
Response: 0.009

Request: Name the recorded abundance fitness for NMECRVCGDKASGFHYGVHACEGCKGFFRRTIRMKLEYEKCERSCKIQKKNRNKCKYCRFQKCLALGMSHNAIRF [Q56K] .
Response: -0.214

Request: Name the recorded abundance fitness for NMECRVCGDKASGFHYGVHACEGCKGFFRRTIRMKLEYEKCERSCKIQKKNRNKCQYCRFQKCLALGQSHNAIRF [M68Q] .
Response: -0.668
